Listed here are compounds together with their documented inhibition at 150 µM.
Test system: Platelet
Measurement Description: Antiplatelet activity in Wistar rat platelet rich plasma assessed as inhibition of collagen-induced platelet aggregation at 150 uM preincubated for 1 min followed by collagen addition by aggregometric analysis relative to control
Assay type: functional

{"columns": ["Molecular String", "Measured On", "Result Unit", "inhibition at 150 µM"],
 "data": [
  ["O=C(N/N=C/c1cccc(O)c1)c1ccccc1O", "Platelet", "%", 27.5],
  ["O=C(N/N=C/c1ccc(Oc2no[n+]([O-])c2S(=O)(=O)c2ccccc2)cc1)c1ccc(O)cc1", "Platelet", "%", 72.2],
  ["O=C(N/N=C/c1cccc(Oc2no[n+]([O-])c2S(=O)(=O)c2ccccc2)c1)c1ccccc1O", "Platelet", "%", 25.5],
  ["O=C(N/N=C/c1ccc(Oc2no[n+]([O-])c2S(=O)(=O)c2ccccc2)cc1)c1ccccc1O", "Platelet", "%", 34.4],
  ["O=C(N/N=C/c1cccc(Oc2no[n+]([O-])c2S(=O)(=O)c2ccccc2)c1)c1cccc(O)c1", "Platelet", "%", 44.8],
  ["O=C(N/N=C/c1ccc(O)cc1)c1cccc(O)c1", "Platelet", "%", 19.1],
  ["O=C(N/N=C/c1ccc(Oc2no[n+]([O-])c2S(=O)(=O)c2ccccc2)cc1)c1cccc(O)c1", "Platelet", "%", 54.3],
  ["O=C(N/N=C/c1cccc(O)c1)c1cccc(O)c1", "Platelet", "%", 29.1],
  ["O=C(N/N=C/c1cccc(O)c1)c1ccc(O)cc1", "Platelet", "%", 33.1],
  ["CC(=O)Oc1ccccc1C(=O)O", "Platelet", "%", 63.4],
  ["O=S(=O)(c1ccccc1)c1no[n+]([O-])c1S(=O)(=O)c1ccccc1", "Platelet", "%", 29.7],
  ["O=C(N/N=C/c1ccc(O)cc1)c1ccccc1O", "Platelet", "%", 35.9],
  ["O=C(N/N=C/c1cccc(Oc2no[n+]([O-])c2S(=O)(=O)c2ccccc2)c1)c1ccc(O)cc1", "Platelet", "%", 39.9],
  ["O=C(N/N=C/c1ccc(O)cc1)c1ccc(O)cc1", "Platelet", "%", 44]
]}

====

Listed here are compounds together with their documented Activity.
System: Mus musculus
Measurement Description: Anti-thrombotic activity in Swiss albino mouse assessed as protection against collagen/epinephrine-induced pulmonary thromboembolism at 100 umol/10 g, po administered as single dose pretreated for 60 mins followed by thrombotic challenge relative to control
Format: functional
Result Type: Activity

{"columns": ["Molecular String", "Measured On", "Result"],
 "data": [
  ["O=C(N/N=C/c1ccc(O)cc1)c1ccc(O)cc1", "Mus musculus", "40%"],
  ["O=C(N/N=C/c1ccc(Oc2no[n+]([O-])c2S(=O)(=O)c2ccccc2)cc1)c1ccc(O)cc1", "Mus musculus", "80%"],
  ["CC(=O)Oc1ccccc1C(=O)O", "Mus musculus", "40%"]
]}

====

System: Platelet
Measurement Description: Antiplatelet activity in Wistar rat platelet rich plasma assessed as inhibition of arachidonic acid-induced platelet aggregation at 150 uM preincubated for 1 min followed by arachidonic acid addition by aggregometric analysis relative to control
Format: functional
Listed here are molecules together with their documented inhibition at 150 µM.
Result Type: inhibition at 150 µM (%)

{"columns": ["Molecule", "Measured On", "Result Type", "Result Unit", "Numeric Value"],
 "data": [
  ["O=C(N/N=C/c1ccc(Oc2no[n+]([O-])c2S(=O)(=O)c2ccccc2)cc1)c1ccccc1O", "Platelet", "inhibition at 150 µM", "%", 8.5],
  ["O=C(N/N=C/c1cccc(Oc2no[n+]([O-])c2S(=O)(=O)c2ccccc2)c1)c1ccccc1O", "Platelet", "inhibition at 150 µM", "%", 17],
  ["O=C(N/N=C/c1ccc(Oc2no[n+]([O-])c2S(=O)(=O)c2ccccc2)cc1)c1ccc(O)cc1", "Platelet", "inhibition at 150 µM", "%", 20.3],
  ["CC(=O)Oc1ccccc1C(=O)O [ASPIRIN]", "Platelet", "inhibition at 150 µM", "%", 28.9],
  ["O=C(N/N=C/c1cccc(Oc2no[n+]([O-])c2S(=O)(=O)c2ccccc2)c1)c1ccc(O)cc1", "Platelet", "inhibition at 150 µM", "%", 14.3],
  ["O=C(N/N=C/c1cccc(O)c1)c1ccccc1O", "Platelet", "inhibition at 150 µM", "%", 60.8],
  ["O=S(=O)(c1ccccc1)c1no[n+]([O-])c1S(=O)(=O)c1ccccc1", "Platelet", "inhibition at 150 µM", "%", 6.7],
  ["O=C(N/N=C/c1ccc(Oc2no[n+]([O-])c2S(=O)(=O)c2ccccc2)cc1)c1cccc(O)c1", "Platelet", "inhibition at 150 µM", "%", 37.3],
  ["O=C(N/N=C/c1cccc(Oc2no[n+]([O-])c2S(=O)(=O)c2ccccc2)c1)c1cccc(O)c1", "Platelet", "inhibition at 150 µM", "%", 25],
  ["O=C(N/N=C/c1cccc(O)c1)c1cccc(O)c1", "Platelet", "inhibition at 150 µM", "%", 48.2],
  ["O=C(N/N=C/c1ccc(O)cc1)c1ccccc1O", "Platelet", "inhibition at 150 µM", "%", 42.5],
  ["O=C(N/N=C/c1ccc(O)cc1)c1ccc(O)cc1", "Platelet", "inhibition at 150 µM", "%", 79.6],
  ["O=C(N/N=C/c1cccc(O)c1)c1ccc(O)cc1", "Platelet", "inhibition at 150 µM", "%", 74.1],
  ["O=C(N/N=C/c1ccc(O)cc1)c1cccc(O)c1", "Platelet", "inhibition at 150 µM", "%", 72.8]
]}
